Values compiled from patent US20150031601A1.

- subject_of_test: serum proteins
- assay_method_text: 90% serum, 30 kDa ultrafiltration, HPLC
Threshold-based label: Protein binding (%) under 70% gives YES, Protein binding (%) not under 70% gives NO.

Check out these entries, answers already filled in.
Lab note: confirm whether the reported Protein binding (%) for this binder is below 70%, equality not counting. binder: GFCWNVCVYRNGVRVCHRRCR [SEQ ID NO: 289] NO

Lab note: confirm whether the reported Protein binding (%) for this binder is below 70%, equality not counting. binder: GFCWHVCVYKNGKRSCYRRCN [SEQ ID NO: 390] NO

Lab note: confirm whether the reported Protein binding (%) for this binder is below 70%, equality not counting. binder: GFCWNVCVYRNGVRICHRRCN [SEQ ID NO: 248] YES

Lab note: confirm whether the reported Protein binding (%) for this binder is below 70%, equality not counting. binder: GFCWRACVYRNGVRSCYRRCN [SEQ ID NO: 320] NO

Lab note: confirm whether the reported Protein binding (%) for this binder is below 70%, equality not counting. binder: KFCWNVCVYRNGVRVCHRRCN [SEQ ID NO: 100] NO

Turning to the following binder.
Lab note: confirm whether the reported Protein binding (%) for this binder is below 70%, equality not counting. binder: GFCWNVCFYRNGVRVCHRRCN [SEQ ID NO: 272] NO
